Values were extracted from patent US11667629B2.

experiment: Liver microsomal stability test, mouse; format: in vitro ADME; conditions: liver microsomes; mouse liver microsome, 1 μM compound, 0.5 mg/mL, NADPH

{"columns": ["chemicalString", "measurementUnit", "CLint scaled at 1 μM"],
 "data": [
  ["O=C(O)c1ccc(-c2csc(N3[C@@H]4CC[C@H]3C[C@@H](OCc3c(-c5ccccc5OC(F)(F)F)noc3C3CC3)C4)n2)cc1C(F)(F)F", "mL/min/kg", 15.3]
]}

###

target: FXR (Homo sapiens, UniProt Q96RI1); construct: expressed in transfected cells; host or cells: HEK293; test: Luciferase reporter gene assay (HEK293 cotransfected with FXR and human BSEP luciferase reporter); type: cell-based; conditions: HEK293, 18 hours incubation
Sequence (Q96RI1 whole entry): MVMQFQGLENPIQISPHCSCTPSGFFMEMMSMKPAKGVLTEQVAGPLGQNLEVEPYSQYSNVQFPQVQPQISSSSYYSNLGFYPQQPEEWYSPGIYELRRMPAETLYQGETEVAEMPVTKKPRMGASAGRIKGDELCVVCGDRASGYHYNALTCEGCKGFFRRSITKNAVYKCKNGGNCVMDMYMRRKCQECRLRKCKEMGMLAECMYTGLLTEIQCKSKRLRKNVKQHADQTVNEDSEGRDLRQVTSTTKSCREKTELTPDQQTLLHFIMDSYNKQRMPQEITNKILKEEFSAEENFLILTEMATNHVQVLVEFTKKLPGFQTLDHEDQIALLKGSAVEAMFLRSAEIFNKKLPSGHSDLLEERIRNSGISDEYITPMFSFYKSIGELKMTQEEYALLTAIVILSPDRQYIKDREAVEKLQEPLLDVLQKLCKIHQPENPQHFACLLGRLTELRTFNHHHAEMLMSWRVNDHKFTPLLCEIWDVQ
readoutName: EC50 (nM)

{"columns": ["chemicalString", "testedTarget", "readoutName", "observedResult"],
 "data": [
  ["Cc1cc(C(=O)O)ccc1-c1csc(N2[C@@H]3CC[C@H]2C[C@@H](OCc2c(-c4ccccc4OC(F)(F)F)noc2C2CC2)C3)n1", "FXR (Homo sapiens, UniProt Q96RI1)", "EC50", 33],
  ["O=C(O)c1csc(-c2csc(N3[C@@H]4CC[C@H]3C[C@@H](OCc3c(-c5ccccc5OC(F)(F)F)noc3C3CC3)C4)n2)c1", "FXR (Homo sapiens, UniProt Q96RI1)", "EC50", 39],
  ["O=C(O)c1ccc(-c2csc(N3[C@@H]4CC[C@H]3C[C@@H](OCc3c(-c5ccccc5OC(F)(F)F)noc3C3CC3)C4)n2)cc1C(F)(F)F", "FXR (Homo sapiens, UniProt Q96RI1)", "EC50", 14]
]}
